I'd be grateful if you could share measured pIC50 for these entries.
Target: various β-lactamases (bacterial lysates) (Klebsiella pneumoniae)
Sequence (Q9F663 whole entry, looked up): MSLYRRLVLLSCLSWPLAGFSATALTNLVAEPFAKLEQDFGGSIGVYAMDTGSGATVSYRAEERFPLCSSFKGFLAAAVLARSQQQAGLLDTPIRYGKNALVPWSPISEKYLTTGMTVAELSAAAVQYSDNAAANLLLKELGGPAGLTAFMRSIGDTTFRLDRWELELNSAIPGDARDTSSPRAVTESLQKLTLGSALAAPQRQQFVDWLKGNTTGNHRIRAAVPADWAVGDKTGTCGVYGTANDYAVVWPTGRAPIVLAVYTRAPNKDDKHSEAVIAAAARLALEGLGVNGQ
Experiment: biochemical
Type: biochemical
Conditions: lysate KP1008 KPC-2; aztreonam cleavage; read-out: AZT IC50 KP1008 KPC-2
pIC50: −log10 of the molar value.

Query block: Would you kindly share the measured pIC50 for O=C(O)C[C@@H]1CC[C@H](NC(=O)Cc2cccnc2)B(O)O1 ?
Result block: > 5.77

Query block: Would you kindly share the measured pIC50 for Nc1nc(/C(=N/OCc2cc(=O)c(O)cn2O)C(=O)N[C@H]2CC[C@@H](CC(=O)O)OB2O)cs1 ?
Result block: > 5.98

Query block: Would you kindly share the measured pIC50 for O=C(O)C[C@@H]1CC[C@H](NC(=O)Cc2ccccc2)B(O)O1 ?
Result block: > 5.77

Query block: Would you kindly share the measured pIC50 for O=C(O)C[C@@H]1CC[C@H](NC(=O)Cc2cc(F)cc(F)c2)B(O)O1 ?
Result block: > 5.82

Query block: Would you kindly share the measured pIC50 for CSCCC(N)C(=O)N[C@H]1CC[C@@H](CC(=O)O)OB1O (stereo partly shown) ?
Result block: > 5.78

Query block: Would you kindly share the measured pIC50 for CO/N=C(\C(=O)N[C@H]1CC[C@@H](CC(=O)O)OB1O)c1csc(N)n1 ?
Result block: < 5.25

Query block: Would you kindly share the measured pIC50 for N[C@@H](CCC(=O)N[C@H]1CC[C@@H](CC(=O)O)OB1O)C(=O)O ?
Result block: < 5.18

Query block: Would you kindly share the measured pIC50 for Nc1nc(CC(=O)N[C@H]2CC[C@@H](CC(=O)O)OB2O)cs1 ?
Result block: 5.19 to 5.80

Query block: Would you kindly share the measured pIC50 for O=C(O)C[C@@H]1CC[C@H](NC(=O)CCc2nnc(-c3ccccc3)o2)B(O)O1 ?
Result block: > 5.87

Query block: Would you kindly share the measured pIC50 for NCCSCC(=O)N[C@H]1CC[C@@H](CC(=O)O)OB1O ?
Result block: 5.16 to 5.76

Query block: Would you kindly share the measured pIC50 for O=C(O)C[C@@H]1CC[C@H](NC(=O)c2ccc(Cn3cnnn3)cc2)B(O)O1 ?
Result block: > 5.86

Query block: Would you kindly share the measured pIC50 for NCCC(=O)N[C@H]1CC[C@@H](CC(=O)O)OB1O ?
Result block: 5.09 to 5.69

Query block: Would you kindly share the measured pIC50 for NC1(CC(=O)N[C@H]2CC[C@@H](CC(=O)O)OB2O)CCCCC1 ?
Result block: > 5.80
